A collection of variants and their measured self-cleavage
B1: HDV Ribozyme (parent)
chain: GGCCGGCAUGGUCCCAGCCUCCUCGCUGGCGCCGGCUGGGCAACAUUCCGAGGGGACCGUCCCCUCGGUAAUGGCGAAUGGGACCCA

# Variants of: B1
# experiment: self-cleavage, relative activity (ratio to wild type); higher = more cleavage; co-transcriptional
observable: self-cleavage

> print(dat)
    alteration  numeric.value
 1   C15A G54U          0.585
 2    G2A G82A         0.0852
 3   G81U C84A          0.378
 4   C13A A77C         0.0462
 5   C18A G38A          0.113
 6   G11A G38U              0
 7   C62U G74A          0.383
 8   G73C G74U          0.166
 9   A56C G82A          0.684
10    U9G C41A          0.831
11   G38U G52U          0.273
12   C19A G34A         0.0755
13    A8U A71G          0.917
14   G25A A83U         0.0678
